molecular target: hemagglutinin (HA) of influenza A/Brisbane/10/07 (H3N2) (influenza A virus A/Brisbane/10/07 (H3N2)); assay: cell-based or functional assay
Overview of reported VNA IC50 across a group of binders:
OBSERVABLE: VNA IC50 (nM)

[
  {
    "BINDER": "SD3068 (VHH) VHH: EVQLVESGGGLVQPGGSLRLSCAASGRTLSIYSMGWFRQAPGKEREFVSTIGWNSGRTFYPDSLKGRFTISRDNSKNTLYLQMNSLRAEDTAVYYCAAAKGPLRLSSQADYWGQGTLVTVSS",
    "BOUND_SIGN": "=",
    "REPORTED": 4
  },
  {
    "BINDER": "SD3079 (VHH) VHH: EVQLVESGGGVVQPGGSLRLSCAASISIFDIYAMDWYRQAPGKQRELVAVSFRDGSTYYADSVKGRFTISRDNSKNTLYLQMNSLRAEDTAVYYCHVSLYRDPLGVAGGLGVYWGQGTLVTVSS",
    "BOUND_SIGN": "=",
    "REPORTED": 949
  },
  {
    "BINDER": "SD3097 (VHH) VHH: EVQLLESGGGLVQPGGSLRLSCAASGRTYAMGWFRQAPGKEREFVAAINALGTRTYYADSVKGRFTISRDNSKNTLYLQMNSLRAEDTAVYYCTAQGQWRAAPVAVAAEYEFWGQGTLVTVSS",
    "BOUND_SIGN": "=",
    "REPORTED": 17
  },
  {
    "BINDER": "SD1046 (VHH) VHH: EVQLVESGGGLVQAGDSLRISCAASGRTLSIYSMGWFRQAPGKEREFVATIGWNSGRTFYPDSLKGRFTISRDNARNTLYLQMNNLRPEDTAVYYCAAAKGPLRLSSQADYWGQGTQVTVSS",
    "BOUND_SIGN": "=",
    "REPORTED": 5
  },
  {
    "BINDER": "SD3080 (VHH) VHH: EVQLVESGGGVVQPGGSLRLSCAASISIFDIYAMDWYRQAPGKQRELVAVSFRDGSTYYADSVKGRFTISRDNSKNTLYLQMNSLRPEDTAVYYCHVSLYRDPLGVAGGLGVYWGQGTLVTVSS",
    "BOUND_SIGN": "=",
    "REPORTED": 632
  },
  {
    "BINDER": "SD3027 (VHH) VHH: EVQLLESGGGLVQAGGSLRLSCAASGRTYAMSWFRQAPGKEREFVSAINALGTRTYYADSVKGRFTISRDNSKNTLYLQMNSLRPEDTAVYYCTAQGQWRAAPVAVAAEYEFWGQGTQVTVSS",
    "BOUND_SIGN": "=",
    "REPORTED": 16
  },
  {
    "BINDER": "SD3021 (VHH) VHH: EVQLVESGGGVVQPGGSLRLSCAASISIFDIYAMDWYRQAPGKQRELVAVSFRDGSTYYADSVKGRFTISRDNSKNTLYLQMNSLRPEDTAVYLCHVSLYRDPLGVAGGLGVYWGKGALVTVSS",
    "BOUND_SIGN": ">",
    "REPORTED": 1000
  },
  {
    "BINDER": "SD3119 (VHH) VHH: QVQLVESGGGVVQPGGSLRLSCAASISIFDIYAMDWYRQAPGKQRELVAVSFRDGSTYYADSVKGRFTISRDNSKNTLYLQMNSLRAEDTAVYYCHVSLYRDPLGVAGGIGVYWGQGTLVTVSS",
    "BOUND_SIGN": "=",
    "REPORTED": 253
  },
  {
    "BINDER": "SD3022 (VHH) VHH: EVQLVESGGGVVQPGGSLRLSCAASISIFDIYAMDWYRQAPGKQRELVAVSFRDGSTYYADSVKGRFTISRDNSKNTLYLQMNSLRPEDTAVYLCHVSLYRDPLGVAGGIGVYWGKGALVTVSS",
    "BOUND_SIGN": "=",
    "REPORTED": 632
  },
  {
    "BINDER": "SD3099 (VHH) VHH: EVQLVESGGGLVQPGGSLRLSCAASGRTLSIYSMGWFRQAPGKEREFVATIGWNSGRTFYPDSVKGRFTISRDNSKNTLYLQMNSLRAEDTAVYYCAAAKGPLRLSSQADYWGQGTLVTVSS",
    "BOUND_SIGN": "=",
    "REPORTED": 3
  },
  {
    "BINDER": "SD3024 (VHH) VHH: EVQLLESGGGLVQPGGSLRLSCAASGRTYAMSWFRQAPGKEREFVSHINALGTRTYYADSVKGRFTISRDNSKNTLYLQMNSLRAEDTAVYYCTAQGQWRAAPVAVAAEYEFWGQGTQVTVSS",
    "BOUND_SIGN": "=",
    "REPORTED": 80
  },
  {
    "BINDER": "SD3095 (VHH) VHH: EVQLLESGGGLVQPGGSLRLSCAASGRTYAMGWFRQAPGKEREFVAHINALGTRTYYADSVKGRFTISRDNSKNTLYLQMNSLRPEDTAVYYCTAQGQWRAAPVAVAAEYEFWGQGTLVTVSS",
    "BOUND_SIGN": "=",
    "REPORTED": 8
  },
  {
    "BINDER": "SD3031 (VHH) VHH: EVQLVESGGGLVQPGGSLRLSCAVSISIFDIYAMDWYRQAPGKQRDLVATSFRDGSTNYADSVKGRFTISRDNAKNTLYLQMNSLKPEDTAVYLCHVSLYRDPLGVAGGVGVYWGKGALVTVSS",
    "BOUND_SIGN": ">",
    "REPORTED": 1000
  },
  {
    "BINDER": "SD3023 (VHH) VHH: EVQLLESGGGLVQAGGSLRLSCAASGRTYAMSWFRQAPGKEREFVSHINALGTRTYYADSVKGRFTISRDNSKNTLYLQMNSLRPEDTAVYYCTAQGQWRAAPVAVAAEYEFWGQGTQVTVSS",
    "BOUND_SIGN": "=",
    "REPORTED": 64
  },
  {
    "BINDER": "SD3078 (VHH) VHH: EVQLVESGGGVVQPGGSLRLSCAASISIFDIYAMDWYRQAPGKQRELVSVSFRDGSTYYADSVKGRFTISRDNSKNTLYLQMNSLRAEDTAVYYCHVSLYRDPLGVAGGLGVYWGQGTLVTVSS",
    "BOUND_SIGN": "=",
    "REPORTED": 632
  }
]
